RUN DESCRIPTION: Cmax in beagle dog at 10 mg/kg, po
Type: ADME, organism-based, Canis lupus familiaris
Parameters: dose 10 mg/kg, route oral
EXPERIMENTAL CONTEXT: in vivo
MEASUREMENT KIND: Cmax

{"columns": ["SMI", "MEASUREMENT KIND", "REPORTED VALUE"],
 "data": [
  ["CCCNS(=O)(=O)Nc1ncnc(OCCOc2ncc(Br)cn2)c1-c1ccc(Br)cc1", "Cmax", "4590 ng/mL"]
]}

###

SUBJECT OF TEST: UniProtKB P25101
Sequence (P25101 whole entry): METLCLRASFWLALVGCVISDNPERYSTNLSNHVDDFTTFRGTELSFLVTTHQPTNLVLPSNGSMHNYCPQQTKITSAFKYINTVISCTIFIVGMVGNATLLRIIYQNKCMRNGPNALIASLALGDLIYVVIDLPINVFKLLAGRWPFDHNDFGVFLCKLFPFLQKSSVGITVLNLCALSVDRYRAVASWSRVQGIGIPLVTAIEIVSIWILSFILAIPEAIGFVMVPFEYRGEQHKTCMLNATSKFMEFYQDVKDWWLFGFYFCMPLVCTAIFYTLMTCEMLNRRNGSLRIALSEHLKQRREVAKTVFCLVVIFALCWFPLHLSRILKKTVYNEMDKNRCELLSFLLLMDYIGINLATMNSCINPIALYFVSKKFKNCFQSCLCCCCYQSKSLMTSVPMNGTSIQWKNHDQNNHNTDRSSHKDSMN
RUN DESCRIPTION: Displacement of [I125]ET1 from recombinant ETA receptor expressed in CHO cells after 2 hrs by TopCount analysis
IC50 less than 2 nM is 1 (yes); IC50 greater than or equal to 2 nM is 0 (no).

{"columns": ["SMI", "CATEGORY LABEL"],
 "data": [
  ["CCCNS(=O)(=O)Nc1ncnc(OCCOc2ncc(Br)cn2)c1-c1ccc(Cl)cc1", "1 (yes)"],
  ["COc1ccccc1Oc1c(NS(=O)(=O)CCc2ccccc2)nc(-c2ncccn2)nc1OCCOc1ncc(C(F)(F)F)cn1", "0 (no)"],
  ["COc1ccc(Cl)c(Oc2c(NS(=O)(=O)NCc3ccccc3)ncnc2OCCOc2ncc(Br)cn2)c1", "1 (yes)"],
  ["COc1ccccc1Oc1c(NS(=O)(=O)c2ccccc2)nc(-c2ncccn2)nc1OCCOc1ncc(Br)cn1", "0 (no)"],
  ["COc1ccccc1Oc1c(NS(=O)(=O)NCc2ccccc2)nc(-c2cnccn2)nc1OCCOc1ncc(Br)cn1", "0 (no)"],
  ["CNS(=O)(=O)Nc1ncnc(OCCOc2ncc(Br)cn2)c1-c1ccc(Br)cc1", "1 (yes)"],
  ["COc1ccccc1Oc1c(NS(=O)(=O)NCc2ccccc2)nc(-c2ncccn2)nc1OCCOc1ncc(Br)cn1", "1 (yes)"],
  ["CC(C)c1ccc(-c2c(NS(=O)(=O)NCc3ccccc3)ncnc2OCCOc2ncc(Br)cn2)cc1", "0 (no)"],
  ["CCS(=O)(=O)Nc1nc(-c2ncccn2)nc(OCCOc2ncc(Br)cn2)c1Oc1ccccc1OC", "0 (no)"],
  ["COc1ccccc1Oc1c(NS(=O)(=O)CCc2ccccc2)nc(-c2ncccn2)nc1OCCOc1ncc(Cl)cn1", "0 (no)"],
  ["CCCNS(=O)(=O)Nc1ncnc(OCCOc2ncc(Br)cn2)c1Oc1cc(OC)ccc1Cl", "1 (yes)"],
  ["CCCCS(=O)(=O)Nc1ncnc(OCCOc2ncc(Br)cn2)c1-c1ccc(Br)cc1", "1 (yes)"],
  ["COCCOc1nc(NS(=O)(=O)NCc2ccccc2)c(Oc2ccccc2OC)c(OCCOc2ncc(Br)cn2)n1", "0 (no)"],
  ["CCCNS(=O)(=O)Nc1ncnc(OCCOc2ncc(Br)cn2)c1Oc1cccc(OC)c1", "1 (yes)"],
  ["COc1cc(OC)nc(OCCOc2nc(-c3ncccn3)nc(NS(=O)(=O)CCc3ccccc3)c2Oc2ccccc2OC)n1", "0 (no)"],
  ["COc1ccccc1Oc1c(NS(=O)(=O)CCc2ccccc2)nc(-c2ncccn2)nc1OCCOc1ncc(C2CC2)cn1", "0 (no)"],
  ["COc1ccccc1Oc1c(NS(C)(=O)=O)nc(-c2ncccn2)nc1OCCOc1ncc(Br)cn1", "0 (no)"],
  ["COc1ccccc1Oc1c(NS(=O)(=O)NCc2ccccc2)nc(C2CC2)nc1OCCOc1ncc(Br)cn1", "0 (no)"]
]}

// provenance: ChEMBL document CHEMBL2163289
